Quick record of pKi values for hCA I (Homo sapiens, UniProt P00915).
In simple prose, pKi is minus the logarithm base ten of a concentration in moles per litre.

Solved cases (2 shown):
[[record]]
molecule = "Cc1cc(C)[n+](-c2cccc(S(N)(=O)=O)c2)c(-c2ccccc2)c1 [19v]"
measurement_target = "hCA I (Homo sapiens, UniProt P00915)"
experimental_endpoint = "pKi"
endpoint_result = 7.14

[[record]]
molecule = "CCCc1cc(C)cc(C)[n+]1-c1cccc(S(N)(=O)=O)c1 [19g]"
measurement_target = "hCA I (Homo sapiens, UniProt P00915)"
experimental_endpoint = "pKi"
endpoint_result = 7.15


Proceed to the following item.
Query the reported pKi for hCA I (Homo sapiens, UniProt P00915); item: CCCc1cc(C)cc(CCC)[n+]1-c1cccc(S(N)(=O)=O)c1 [19c]
7.07
